Documented activity at 10 µM across a set of compounds
study-system: Drosophila OR49b (Drosophila melanogaster)
Construct: expressed in transfected cells
Sequence (Q9V6H2 1-375): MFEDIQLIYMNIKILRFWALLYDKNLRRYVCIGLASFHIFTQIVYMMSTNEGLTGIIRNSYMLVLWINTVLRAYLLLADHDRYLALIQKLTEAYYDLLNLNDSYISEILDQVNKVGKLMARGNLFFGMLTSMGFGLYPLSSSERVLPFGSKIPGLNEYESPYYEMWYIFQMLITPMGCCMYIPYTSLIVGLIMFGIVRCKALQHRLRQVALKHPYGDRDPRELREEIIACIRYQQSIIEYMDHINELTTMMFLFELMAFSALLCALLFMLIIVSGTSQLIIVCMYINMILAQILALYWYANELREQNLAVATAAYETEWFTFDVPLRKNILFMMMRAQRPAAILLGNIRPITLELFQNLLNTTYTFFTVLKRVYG
Sequence (Q9VNB5 1-486 partner): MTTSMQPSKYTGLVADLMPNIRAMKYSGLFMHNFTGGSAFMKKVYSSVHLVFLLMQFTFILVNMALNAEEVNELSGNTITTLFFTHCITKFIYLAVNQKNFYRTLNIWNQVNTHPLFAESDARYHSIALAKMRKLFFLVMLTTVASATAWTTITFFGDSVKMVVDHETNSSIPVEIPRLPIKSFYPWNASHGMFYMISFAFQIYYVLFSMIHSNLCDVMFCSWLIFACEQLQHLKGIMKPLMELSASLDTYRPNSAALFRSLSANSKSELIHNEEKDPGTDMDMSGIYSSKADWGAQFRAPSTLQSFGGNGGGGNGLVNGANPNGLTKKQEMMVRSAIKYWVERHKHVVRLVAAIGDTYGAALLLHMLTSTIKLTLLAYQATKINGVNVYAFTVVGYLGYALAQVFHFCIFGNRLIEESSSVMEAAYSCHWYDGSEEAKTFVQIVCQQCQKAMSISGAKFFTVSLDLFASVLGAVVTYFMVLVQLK
assay-summary: cell-based
Parameters: GCaMP6 calcium fluorescence in stable HEK293 OR+ORCO lines; peak dF normalised to 50 uM VUAA1 (=1)
experimental-parameters: HEK293; relative to 50 uM VUAA1 response; below 0.05 set to 0; read-out: % activation
Provide the reading as a plain figure in %.

Recorded results for 4 compounds are shown here.
{"compound": "C=C(C)[C@H]1CC=C(C)CC1 [(R)-(+)-limonene]", "study-system": "Drosophila OR49b (Drosophila melanogaster)", "value-measured": 0}
{"compound": "C=C(C)C1CCC2(C)OC2C1 (single isomer, unassigned; (+)) [(+)-limonene oxide]", "study-system": "Drosophila OR49b (Drosophila melanogaster)", "value-measured": 0}
{"compound": "C=C1CC[C@@]23C[C@@H]1C(C)(C)[C@@H]2CC[C@H]3C [(+)-beta-cedrene]", "study-system": "Drosophila OR49b (Drosophila melanogaster)", "value-measured": 0}
{"compound": "CCCCCCCCCCCCCC", "study-system": "Drosophila OR49b (Drosophila melanogaster)", "value-measured": 5.2}

// moving on: another record for activity at 10 µM
### Prompt For the compound C=C1[C@H]2CC[C@@H]3[C@H]2C(C)(C)CCC[C@]13C [(+)-longifolene] , what activity at 10 µM is on record?
### Response 0

---

Documented OR71a response (VUAA1-normalized response) across a set of molecules
study-system: Drosophila OR71a (Drosophila melanogaster, UniProt Q9VUK5)
Construct: expressed in transfected cells
Sequence (Q9VUK5 whole entry, one chain of several): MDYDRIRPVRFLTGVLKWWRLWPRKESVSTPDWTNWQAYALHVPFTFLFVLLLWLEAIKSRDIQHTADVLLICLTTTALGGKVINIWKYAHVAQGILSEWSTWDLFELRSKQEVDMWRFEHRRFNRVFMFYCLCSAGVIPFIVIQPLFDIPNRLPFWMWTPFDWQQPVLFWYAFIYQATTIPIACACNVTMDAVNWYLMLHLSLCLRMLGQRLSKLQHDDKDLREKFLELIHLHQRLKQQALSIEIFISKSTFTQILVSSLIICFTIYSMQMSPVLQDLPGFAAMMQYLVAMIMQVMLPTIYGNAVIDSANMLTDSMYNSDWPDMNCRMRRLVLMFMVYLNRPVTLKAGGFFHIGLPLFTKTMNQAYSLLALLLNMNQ
assay-summary: Calcium ion fluorescence (GCaMP6) assay, OR71a stable HEK293 cell line
Assay type: cell-based
experimental-parameters: VOC concentration 100 μM
Keep it simple and answer with nothing but the number.

Recorded results for 6 molecules are shown here.
{"molecule": "C=C(C)C1CCC2(C)OC2C1 (single isomer, unassigned; (+)) [(+)-limonene oxide]", "value-measured": 0.00}
{"molecule": "C=C(C)[C@H]1CC=C(C)CC1 [limonene]", "value-measured": 0.00}
{"molecule": "C=C(C)[C@H]1CC=C(C)CC1 [(R)-(+)-limonene]", "value-measured": 0.00}
{"molecule": "CC(C)=CCC/C(C)=C/CC/C(C)=C/CO", "value-measured": 0.00}
{"molecule": "C=C1[C@H]2CC[C@@H]3[C@H]2C(C)(C)CCC[C@]13C [(+)-longifolene]", "value-measured": 0.00}
{"molecule": "CC1=CCC[C@@]2(C)[C@@H]3CC[C@]12CC3(C)C [(−)-α-neoclovene]", "value-measured": 0.00}

// moving on: another record for OR71a response (VUAA1-normalized response)
### Prompt For the molecule CC/C=C\CCO , what OR71a response (VUAA1-normalized response) is on record?
### Response 0.00

---

study-system: Drosophila OR85b (Drosophila melanogaster, UniProt Q9VHQ7)
Construct: expressed in transfected cells
Sequence (Q9VHQ7 whole entry, one chain of several): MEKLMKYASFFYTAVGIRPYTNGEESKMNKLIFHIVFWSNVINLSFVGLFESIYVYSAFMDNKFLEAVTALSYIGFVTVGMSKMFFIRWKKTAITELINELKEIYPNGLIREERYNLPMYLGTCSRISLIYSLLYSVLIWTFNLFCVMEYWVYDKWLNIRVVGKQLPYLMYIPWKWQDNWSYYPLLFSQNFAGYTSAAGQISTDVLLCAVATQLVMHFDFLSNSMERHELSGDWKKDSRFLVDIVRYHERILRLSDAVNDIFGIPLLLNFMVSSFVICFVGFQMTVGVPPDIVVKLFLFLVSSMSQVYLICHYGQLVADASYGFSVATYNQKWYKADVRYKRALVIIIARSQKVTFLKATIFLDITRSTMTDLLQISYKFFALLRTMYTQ
assay-summary: Calcium ion fluorescence (GCaMP6) assay, OR85b stable HEK293 cell line
Format: cell-based
experimental-parameters: ligand concentration 1 (unit not given); threshold 0.05, below shown as 0
property-label: DF norm AVERAGE OR85b
Keep it simple and answer with nothing but the number.

### Prompt For the compound COC(=O)c1ccccc1O [methyl salicylate] , what DF norm AVERAGE OR85b is on record?
### Response 0

### Prompt Cc1cccc(C)c1 [m-xylene] ?
### Response 0

### Prompt OCCc1ccccc1 [phenethyl alcohol] ?
### Response 0.09884

### Prompt Cc1ccc(C(C)C)cc1 [p-cymene] ?
### Response 0

### Prompt CCCCCCCCCC=O [decanal] ?
### Response 0

### Prompt CC/C=C/CCO [e3-hexenol] ?
### Response 0

### Prompt CCc1ccccc1 [ethylbenzene] ?
### Response 0

### Prompt CCCCOC(C)=O [butyl acetate] ?
### Response 0

### Prompt CCCCCCCCC=O [nonanal] ?
### Response 0

---

study-system: Drosophila OR49b (Drosophila melanogaster)
Construct: expressed in transfected cells
assay-summary: cell-based
experimental-parameters: OR49b cell line; odorant cc. 100 µM; mean of biological replicates
Documented Average response across a set of compounds
Keep it simple and answer with nothing but the number.

### Prompt For the compound C=C(C)C1CCC2(C)OC2C1 (single isomer, unassigned; (+)) [(+)-limonene oxide] , what Average response is on record?
### Response 0.00

---

study-system: Drosophila OR98a (Drosophila melanogaster, UniProt Q9VAZ3)
Construct: expressed in transfected cells
Sequence (Q9VAZ3 whole entry, one chain of several): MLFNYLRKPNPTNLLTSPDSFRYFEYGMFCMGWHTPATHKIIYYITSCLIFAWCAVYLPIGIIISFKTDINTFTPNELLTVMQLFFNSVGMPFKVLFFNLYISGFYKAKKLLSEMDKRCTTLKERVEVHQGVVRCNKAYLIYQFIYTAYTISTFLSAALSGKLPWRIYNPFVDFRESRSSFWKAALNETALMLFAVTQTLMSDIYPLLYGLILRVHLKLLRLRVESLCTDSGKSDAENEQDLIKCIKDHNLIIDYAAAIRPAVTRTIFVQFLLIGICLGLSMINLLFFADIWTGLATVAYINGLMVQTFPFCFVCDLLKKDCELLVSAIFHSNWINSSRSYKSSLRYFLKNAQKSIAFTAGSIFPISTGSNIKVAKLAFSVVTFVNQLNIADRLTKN
assay-summary: cell-based
Set-up: GCaMP6 calcium fluorescence in stable HEK293 OR+ORCO lines; peak dF normalised to 50 uM VUAA1 (=1)
experimental-parameters: HEK293; relative to 50 uM VUAA1 response; below 0.05 set to 0; read-out: % activation
Documented activity at 1 µM across a set of compounds
Enter the number, and then the unit.

{"compound": "C=C1[C@H]2CC[C@@H]3[C@H]2C(C)(C)CCC[C@]13C [(+)-longifolene]", "study-system": "Drosophila OR98a (Drosophila melanogaster, UniProt Q9VAZ3)", "value-measured": "0%"}
{"compound": "C=C(C)C1CCC2(C)OC2C1 (single isomer, unassigned; (+)) [(+)-limonene oxide]", "study-system": "Drosophila OR98a (Drosophila melanogaster, UniProt Q9VAZ3)", "value-measured": "0%"}
{"compound": "CC1=CCC[C@@]2(C)[C@@H]3CC[C@]12CC3(C)C [(−)-α-neoclovene]", "study-system": "Drosophila OR98a (Drosophila melanogaster, UniProt Q9VAZ3)", "value-measured": "14.8%"}
{"compound": "C=C(C)[C@H]1CC=C(C)CC1 [(R)-(+)-limonene]", "study-system": "Drosophila OR98a (Drosophila melanogaster, UniProt Q9VAZ3)", "value-measured": "0%"}

// moving on: another record for activity at 1 µM
### Prompt For the compound C=C1CC[C@@]23C[C@@H]1C(C)(C)[C@@H]2CC[C@H]3C [(+)-beta-cedrene] , what activity at 1 µM is on record?
### Response 8.55%

---

study-system: Drosophila OR47a (Drosophila melanogaster)
Construct: expressed in transfected cells
Sequence (P81921 whole entry, one chain of several): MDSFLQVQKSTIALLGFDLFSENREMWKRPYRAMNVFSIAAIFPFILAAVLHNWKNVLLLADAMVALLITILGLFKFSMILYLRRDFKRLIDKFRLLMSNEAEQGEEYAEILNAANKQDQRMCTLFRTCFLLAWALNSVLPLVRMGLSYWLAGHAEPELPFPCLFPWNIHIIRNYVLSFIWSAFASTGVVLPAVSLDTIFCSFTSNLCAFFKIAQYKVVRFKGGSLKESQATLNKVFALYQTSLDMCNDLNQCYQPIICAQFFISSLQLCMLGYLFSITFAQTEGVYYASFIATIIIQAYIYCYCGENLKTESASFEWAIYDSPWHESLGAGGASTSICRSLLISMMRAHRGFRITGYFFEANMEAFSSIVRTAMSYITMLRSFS
assay-summary: Calcium ion fluorescence (GCaMP6) assay, OR47a stable HEK293 cell line
Assay type: cell-based
experimental-parameters: HEK293, read-out: OR47a Average response (VUAA1-normalized)
Please note: MET applies when activation at 100 µM is 20% or greater, and NOT MET applies otherwise.

{"compound": "CCCCCC(=O)CC [3-octanone]", "assigned-class": "MET"}

### Prompt For this compound, is measured activation at 100 µM 20% or higher? CC/C=C\CCOC(C)=O [z3-hexenyl acetate]
### Response MET

### Prompt COC(=O)c1ccccc1O [methyl salicylate] ?
### Response NOT MET

### Prompt C=CC(O)CCCCC (stereo not shown) [1-octen-3-ol] ?
### Response NOT MET

### Prompt CC(=O)OCCC(C)C [isopentyl acetate] ?
### Response NOT MET
